Attribution: PubChem BioAssay (NCI)

Tested on: EKVX NSCLC
RUN_DESCRIPTION: NCI tumour cell line growth inhibition, 48 h
Below, each entry is listed with its recorded TGI.

Fc1cccc(-c2nc(-c3c[nH]c4ncccc34)cs2)c1    > 100 µM
CCOc1cc2cnc3c4cc(OC)c(OC)cc4ccc3c2cc1OC    > 100 µM
O=C(/C=C/c1cc(O)ccc1O)c1ccc(Cl)cc1    54.7 µM

Dear colleague, I am looking for the recorded TGI of the following molecule: `CN(C)c1ccc(C2=C([O-])c3cc(-[n+]4ccccc4)ccc3C2=O)cc1`
> 100 µM

Dear colleague, I am looking for the recorded TGI of the following molecule: `[N-]=[N+]=Nc1nnc(CCCCc2nnc(N=[N+]=[N-])o2)o1`
> 100 µM

Dear colleague, I am looking for the recorded TGI of the following molecule: `CCSc1nc(N)c(C#N)c(-c2ccc(OC)c(OC)c2)c1C#N`
> 50 µM

* * *

Tested on: SR leukemia
RUN_DESCRIPTION: NCI tumour cell line growth inhibition, 48 h
Below, each entry is listed with its recorded TGI.

COc1ccc(OC)c(-c2nc3sc(C)cn3c2/C=C2\C(=O)N(C)c3ccccc32)c1    18.5 µM
CC(CCCCNC(=O)OC(C)(C)C)NC(=O)NC(C)CCCCNC(=O)OC(C)(C)C (stereo unspecified)    > 100 µM

Dear colleague, I am looking for the recorded TGI of the following compound: CC(O)/C=C/C1OC(=O)CC1Nc1ccc(C=O)cc1 (stereo unspecified)
73.8 µM

Dear colleague, I am looking for the recorded TGI of the following compound: `O=C(NN1CCCCC1)c1cc2cc(CCl)ccc2oc1=O`
67.8 µM

Dear colleague, I am looking for the recorded TGI of the following compound: `c1cc2nnc1SCCSCCCSCCS2`
> 100 µM

* * *

Test system: CAKI-1 renal
RUN_DESCRIPTION: NCI tumour cell line growth inhibition, 48 h
Below, each entry is listed with its recorded TGI.

Example cases with answers are listed next.
COC(OC)[C@@H]1OC[C@H](n2ccc(=O)[nH]c2=O)[C@H]1O    > 100 µM
CN(C)CCSC(=Nc1ccccc1)n1cccc1    > 100 µM
CCOC(=O)c1nc2ccc(C(F)(F)F)cc2nc1NCc1ccc(F)cc1    > 100 µM
CN1CCN(c2ccc3nc(-c4ccc5nc(CCCc6ccc(N(CCCl)CCCl)cc6)[nH]c5c4)[nH]c3c2)CC1    > 100 µM
NC(=S)N/N=C1/C(=O)N(c2ccccc2)C(=O)C1C(=O)Nc1ccccc1 (centres undefined)    > 100 µM
COc1cc(/C=C2\CC3C4CC[C@H]5C[C@@H](O)CC[C@]5(C)C4CC[C@]3(C)\C2=N\O)cc(OC)c1OC (some centres undefined)    29.3 µM
COC(=O)C1=C(C(=O)OC)N(c2ccncc2)C(c2ccco2)=CC1c1ccccc1[N+](=O)[O-] (centres undefined)    31.6 µM
C[C@@]12[Se]c3ccccc3[C@]1(C)[Se]c1ccccc12    > 100 µM

Dear colleague, I am looking for the recorded TGI of the following compound: `C=CC(=O)OCCCS(=O)(=O)[O-].C=CC(=O)OCCCS(=O)(=O)[O-].NC1CCCCC1N.[Pt+4]`
> 25 µM

* * *

System: SF-539 CNS
RUN_DESCRIPTION: NCI tumour cell line growth inhibition, 48 h
Below, each entry is listed with its recorded TGI.

CCOC(=O)COc1cc(-c2ccccc2)nc2cc(F)ccc12    > 100 µM
C=CCC(O)c1cc(OC)ccc1OC (configuration not stated)    > 100 µM
CN(C(=O)C12C3(C(=O)O)C4C5(C(=O)O)C3C1(C(=O)O)C5C42C(=O)O)C(C)(C)C (configuration not stated)    > 100 µM
CC/C(=N/O)C(C)C(=O)CCC(=O)Nc1ccc(Cl)cc1 (configuration not stated)    > 100 µM
OCCCN=C1N=C(Cl)/C(=C\c2ccccc2)N1    > 100 µM

Continue with the molecule presented below.
Lab note: need TGI with SF-539 CNS for entry `COC(=O)C[C@@H]1CC=CC(=O)/C1=C(O)/C=C/c1ccccc1` , please look it up.
7.15 µM
